Consider the following compounds; for each one, report its relative viability.
test system: NCI-H650; assay: relative viability (nuclei count vs DMSO), 5 days (fraction); higher = more cells survive; conditions: first compound 4 µM
Lab note: jot the number down without any unit.

Record COc1cc(N2CCC(C(N)=O)CC2)ccc1Nc1nc(N)c(Cl)c(Nc2ccccc2S(=O)(=O)C(C)C)n1 [HG-5-88-01] + NC(=O)Nc1cc(-c2cccc(F)c2)sc1C(=O)N[C@H]1CCCNC1 [AZD7762] (partner 0.2 µM) , field relative viability: 0.683

Record C[C@@H]1CN(CC(=O)Nc2ccc3c(c2)Cc2cccc(-c4cc(=O)cc(N5CCOCC5)o4)c2S3)C[C@H](C)O1 + CC(=O)c1c(C)c2cnc(Nc3ccc(N4CCNCC4)cn3)nc2n(C2CCCC2)c1=O [Palbociclib] (partner 0.5 µM) , field relative viability: 0.281

Record C[C@@H]1CN(CC(=O)Nc2ccc3c(c2)Cc2cccc(-c4cc(=O)cc(N5CCOCC5)o4)c2S3)C[C@H](C)O1 + Cc1nc(Nc2ncc(C(=O)Nc3c(C)cccc3Cl)s2)cc(N2CCN(CCO)CC2)n1 [Dasatinib] (partner 0.075 µM) , field relative viability: 0.384

Record C[C@@H]1CN(CC(=O)Nc2ccc3c(c2)Cc2cccc(-c4cc(=O)cc(N5CCOCC5)o4)c2S3)C[C@H](C)O1 + Nc1ncn([C@H]2C[C@H](O)[C@@H](CO)O2)c(=O)n1 [Decitabine] (partner 2 µM) , field relative viability: 0.341

Record Clc1ccc(Nc2nnc(Cc3ccncc3)c3ccccc23)cc1 [Vatalanib] + Cc1nc(NC(=O)N2CCC[C@H]2C(N)=O)sc1-c1ccnc(C(C)(C)C(F)(F)F)c1 [Alpelisib] (partner 2 µM) , field relative viability: 1.13

Record COc1cc(N2CCC(C(N)=O)CC2)ccc1Nc1nc(N)c(Cl)c(Nc2ccccc2S(=O)(=O)C(C)C)n1 [HG-5-88-01] + O=C(c1cc(Cc2n[nH]c(=O)c3ccccc23)ccc1F)N1CCN(C(=O)C2CC2)CC1 [Olaparib] (partner 8 µM) , field relative viability: 0.239

Record COc1cc(N2CCC(C(N)=O)CC2)ccc1Nc1nc(N)c(Cl)c(Nc2ccccc2S(=O)(=O)C(C)C)n1 [HG-5-88-01] + CS(=O)(=O)CCNCc1ccc(-c2ccc3ncnc(Nc4ccc(OCc5cccc(F)c5)c(Cl)c4)c3c2)o1 [Lapatinib] (partner 2 µM) , field relative viability: 0.475

Record C[C@@H]1CN(CC(=O)Nc2ccc3c(c2)Cc2cccc(-c4cc(=O)cc(N5CCOCC5)o4)c2S3)C[C@H](C)O1 + Nc1nc2[nH]cc(CCc3ccc(C(=O)N[C@@H](CCC(=O)O)C(=O)O)cc3)c2c(=O)[nH]1 [Pemetrexed] (partner 0.2 µM) , field relative viability: 0.812

Record C[C@@H]1CN(CC(=O)Nc2ccc3c(c2)Cc2cccc(-c4cc(=O)cc(N5CCOCC5)o4)c2S3)C[C@H](C)O1 + C[C@@H](Oc1cc(-c2cnn(C3CCNCC3)c2)cnc1N)c1c(Cl)ccc(F)c1Cl [Crizotinib] (partner 1 µM) , field relative viability: 0.602

Record COc1cc(N2CCC(C(N)=O)CC2)ccc1Nc1nc(N)c(Cl)c(Nc2ccccc2S(=O)(=O)C(C)C)n1 [HG-5-88-01] + C[C@]1(O)C[C@@H](c2nc(-c3ccc4ccc(-c5ccccc5)nc4c3)c3c(N)nccn32)C1 [Linsitinib] (partner 1 µM) , field relative viability: 0.492

Record Clc1ccc(Nc2nnc(Cc3ccncc3)c3ccccc23)cc1 [Vatalanib] + CC(=O)c1c(C)c2cnc(Nc3ccc(N4CCNCC4)cn3)nc2n(C2CCCC2)c1=O [Palbociclib] (partner 0.5 µM) , field relative viability: 0.32

Record C[C@@H]1CN(CC(=O)Nc2ccc3c(c2)Cc2cccc(-c4cc(=O)cc(N5CCOCC5)o4)c2S3)C[C@H](C)O1 + CS(=O)(=O)CCNCc1ccc(-c2ccc3ncnc(Nc4ccc(OCc5cccc(F)c5)c(Cl)c4)c3c2)o1 [Lapatinib] (partner 2 µM) , field relative viability: 0.697

Record COc1cc(N2CCC(C(N)=O)CC2)ccc1Nc1nc(N)c(Cl)c(Nc2ccccc2S(=O)(=O)C(C)C)n1 [HG-5-88-01] + C[C@@H](Oc1cc(-c2cnn(C3CCNCC3)c2)cnc1N)c1c(Cl)ccc(F)c1Cl [Crizotinib] (partner 1 µM) , field relative viability: 0.398

Record COc1cc(N2CCC(C(N)=O)CC2)ccc1Nc1nc(N)c(Cl)c(Nc2ccccc2S(=O)(=O)C(C)C)n1 [HG-5-88-01] + CC(=O)c1c(C)c2cnc(Nc3ccc(N4CCNCC4)cn3)nc2n(C2CCCC2)c1=O [Palbociclib] (partner 0.5 µM) , field relative viability: 0.296

Record C[C@@H]1CN(CC(=O)Nc2ccc3c(c2)Cc2cccc(-c4cc(=O)cc(N5CCOCC5)o4)c2S3)C[C@H](C)O1 + C[C@]1(O)C[C@@H](c2nc(-c3ccc4ccc(-c5ccccc5)nc4c3)c3c(N)nccn32)C1 [Linsitinib] (partner 1 µM) , field relative viability: 0.584

Record Clc1ccc(Nc2nnc(Cc3ccncc3)c3ccccc23)cc1 [Vatalanib] + CS(=O)(=O)N1CCN(Cc2cc3nc(-c4cccc5[nH]ncc45)nc(N4CCOCC4)c3s2)CC1 [Pictilisib] (partner 1 µM) , field relative viability: 0.909

* * *

test system: HCC-15; test: relative viability (nuclei count vs DMSO), 5 days (fraction); higher = more cells survive; settings: first compound 0.01 µM
readout.label: relative viability
Lab note: jot the number down without any unit.

Record CC(C)Oc1cc(Nc2nc(N[C@@H](C)c3ccc(F)cn3)ncc2Cl)n[nH]1 [AZ23] + NC(=O)Nc1cc(-c2cccc(F)c2)sc1C(=O)N[C@H]1CCCNC1 [AZD7762] (partner 0.2 µM) , field relative viability: 1.43

Record CC(C)Oc1cc(Nc2nc(N[C@@H](C)c3ccc(F)cn3)ncc2Cl)n[nH]1 [AZ23] + CC1(C)CCC(c2ccc(Cl)cc2)=C(CN2CCN(c3ccc(C(=O)NS(=O)(=O)c4ccc(N[C@H](CCN5CCOCC5)CSc5ccccc5)c(S(=O)(=O)C(F)(F)F)c4)cc3)CC2)C1 [Navitoclax] (partner 0.5 µM) , field relative viability: 0.744

Record CC(C)Oc1cc(Nc2nc(N[C@@H](C)c3ccc(F)cn3)ncc2Cl)n[nH]1 [AZ23] + O=C(c1cc(Cc2n[nH]c(=O)c3ccccc23)ccc1F)N1CCN(C(=O)C2CC2)CC1 [Olaparib] (partner 8 µM) , field relative viability: 1.02

* * *

Consider the following molecules; for each one, report its relative viability.
tested on: NCI-H2009; experiment: relative viability (nuclei count vs DMSO), 5 days (fraction); higher = more cells survive; settings: first compound 0.01 µM
Lab note: jot the number down without any unit.

Record CC(C)Oc1cc(Nc2nc(N[C@@H](C)c3ccc(F)cn3)ncc2Cl)n[nH]1 [AZ23] + O=C(CCCCCCC(=O)Nc1ccccc1)NO [Vorinostat] (partner 1 µM) , field relative viability: 0.704

Record CC(C)Oc1cc(Nc2nc(N[C@@H](C)c3ccc(F)cn3)ncc2Cl)n[nH]1 [AZ23] + Nc1ncn([C@H]2C[C@H](O)[C@@H](CO)O2)c(=O)n1 [Decitabine] (partner 2 µM) , field relative viability: 0.406

Record CC(C)Oc1cc(Nc2nc(N[C@@H](C)c3ccc(F)cn3)ncc2Cl)n[nH]1 [AZ23] + Cc1cc(Nc2cc(N3CCN(C)CC3)nc(Sc3ccc(NC(=O)C4CC4)cc3)n2)n[nH]1 [Tozasertib] (partner 0.1 µM) , field relative viability: 0.755

Record CC(C)Oc1cc(Nc2nc(N[C@@H](C)c3ccc(F)cn3)ncc2Cl)n[nH]1 [AZ23] + Cc1nc(Nc2ncc(C(=O)Nc3c(C)cccc3Cl)s2)cc(N2CCN(CCO)CC2)n1 [Dasatinib] (partner 0.075 µM) , field relative viability: 0.278

* * *

Consider the following compounds; for each one, report its relative viability.
test system: NCI-H1915; experiment: relative viability (nuclei count vs DMSO), 5 days (fraction); higher = more cells survive; details: first compound 0.4 µM
Lab note: jot the number down without any unit.

Record Clc1ccc(Nc2nnc(Cc3ccncc3)c3ccccc23)cc1 [Vatalanib] + CS(=O)(=O)N1CCN(Cc2cc3nc(-c4cccc5[nH]ncc45)nc(N4CCOCC4)c3s2)CC1 [Pictilisib] (partner 1 µM) , field relative viability: 0.972

Record C[C@@H]1CN(CC(=O)Nc2ccc3c(c2)Cc2cccc(-c4cc(=O)cc(N5CCOCC5)o4)c2S3)C[C@H](C)O1 + COc1cc2c(Oc3ccc(NC(=O)C4(C(=O)Nc5ccc(F)cc5)CC4)cc3F)ccnc2cc1OCCCN1CCOCC1 [Foretinib] (partner 0.25 µM) , field relative viability: 1.03

Record C[C@@H]1CN(CC(=O)Nc2ccc3c(c2)Cc2cccc(-c4cc(=O)cc(N5CCOCC5)o4)c2S3)C[C@H](C)O1 + Cc1cc(Nc2cc(N3CCN(C)CC3)nc(Sc3ccc(NC(=O)C4CC4)cc3)n2)n[nH]1 [Tozasertib] (partner 0.1 µM) , field relative viability: 0.399

Record Clc1ccc(Nc2nnc(Cc3ccncc3)c3ccccc23)cc1 [Vatalanib] + CC(=O)c1c(C)c2cnc(Nc3ccc(N4CCNCC4)cn3)nc2n(C2CCCC2)c1=O [Palbociclib] (partner 0.5 µM) , field relative viability: 0.516
